Give IC50 for every item shown.
- TARGET SYSTEM: HBV core protein (UniProt P03146)
- Sequence (P03146 whole entry, looked up): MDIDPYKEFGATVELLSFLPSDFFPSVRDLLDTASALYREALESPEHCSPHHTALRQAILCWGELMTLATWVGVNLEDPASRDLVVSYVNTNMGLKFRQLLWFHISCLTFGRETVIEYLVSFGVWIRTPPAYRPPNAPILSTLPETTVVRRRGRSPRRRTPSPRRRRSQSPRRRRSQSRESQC
- Format: biochemical
- PARTICULARS: read-out: Assembly Activity (IC50); BODIPY-FL labelled core protein, assembly started with NaCl, read after 6 min

The observed IC50 for Nc1nc2c(s1)CN(C(=O)c1cc3cccc(Br)c3[nH]1)CC2 when tested with HBV core protein (UniProt P03146) stands at < 5 µM

The observed IC50 for CC(C)(C)C(=O)Nc1nc2c(s1)CN(C(=O)c1cc3ccccc3[nH]1)CC2 when tested with HBV core protein (UniProt P03146) stands at 5 to 10 µM

The observed IC50 for O=C(c1cc2ccccc2[nH]1)N1CCc2nc(NCC3(O)COC3)sc2C1 when tested with HBV core protein (UniProt P03146) stands at < 5 µM

The observed IC50 for O=C(Nc1nc2c(s1)CN(C(=O)c1cc3ccccc3[nH]1)CC2)C1CCOCC1 when tested with HBV core protein (UniProt P03146) stands at < 5 µM

The observed IC50 for CCc1cc(F)cc2[nH]c(C(=O)N3CCc4nc(NC[C@@H]5CCOC5)sc4C3)cc12 when tested with HBV core protein (UniProt P03146) stands at < 5 µM

The observed IC50 for O=C(Nc1nc2c(s1)CN(C(=O)c1cc3c(Cl)cccc3[nH]1)CC2)C1CCOCC1 when tested with HBV core protein (UniProt P03146) stands at < 5 µM

The observed IC50 for N#CC1(C(=O)Nc2nc3c(s2)CN(C(=O)c2cc4ccccc4[nH]2)CC3)CC1 when tested with HBV core protein (UniProt P03146) stands at 5 to 10 µM

The observed IC50 for Cc1cc(F)cc2[nH]c(C(=O)N3CCc4nc(NCC5(O)CCC5)sc4C3)cc12 when tested with HBV core protein (UniProt P03146) stands at < 5 µM

The observed IC50 for Nc1nc2c(s1)CN(C(=O)c1cc3c(Br)ccc(O)c3[nH]1)CC2 when tested with HBV core protein (UniProt P03146) stands at < 100 µM

The observed IC50 for O=C(c1cc2c(F)cc(F)cc2[nH]1)N1CCc2nc(OCCO)sc2C1 when tested with HBV core protein (UniProt P03146) stands at 5 to 10 µM

The observed IC50 for O=C(c1cc2c(F)cc(F)cc2[nH]1)N1CCc2nc(NCCO)sc2C1 when tested with HBV core protein (UniProt P03146) stands at < 5 µM
